Experiment: binders from COS7 lysate, DM2A8 probe, primary screen, torsin A project, cell lysate, small-molecule microarray, fluorescence 635/667 (AID 1065)
Settings: higher = more signal, COS7 lysate expressing mutant human TOR1A
// no (0) strictly below 0.01 in composite z-score; yes (1) otherwise

Please review the entries below; each comes with its answer.
{"columns": ["Compound", "Discrete Label"],
 "data": [
  ["COc1ccccc1CN1C(=O)c2ccccc2[C@@]2(Cc3ccccc3N(CC(C)C)C2=O)[C@@H]1c1ccc(CO)cc1", "no (0)"],
  ["COC(=O)[C@@]1(Cc2ccc(F)cc2)[C@H]2c3cc(C(=O)N(C)C)n(Cc4ccc(Cl)c(C(F)(F)F)c4)c3C[C@H]2CN1C(=O)c1ccccc1", "yes (1)"]
]}

Given COC(=O)[C@@]1(Cc2ccc(F)cc2)[C@H]2c3cc(C(=O)N(C)C)n(Cc4cc(F)c(F)c(F)c4)c3C[C@H]2CN1C(=O)c1ccccc1 , state whether its composite z-score is at least 0.01. no (0)

Given C[C@H]1C2[C@H](Cc3ccccc3)NC(=O)[C@]23C(=O)N[C@H](Cc2ccccc2)C(=O)N2CCC[C@H]2C(=O)NC/C=C\C/C=C/C3[C@@H]2O[C@]12C (stereo partly drawn) , state whether its composite z-score is at least 0.01. no (0)

Given CC(C)C[C@@H]1NC(=O)[C@@H]2C[C@H](C(=O)O)[C@H](c3cccc(OCCO)c3)N2C1=O , state whether its composite z-score is at least 0.01. yes (1)

Given CCOC(=O)C[C@H]1[C@H](OC(=O)c2ccccc2-c2ccccc2)[C@@H](NC(=O)CC(C)C)c2cc(OCCCO)ccc2N1C(=O)Cc1ccc(OC)cc1 , state whether its composite z-score is at least 0.01. yes (1)

Given COC(=O)[C@@]1(Cc2ccc(OC)cc2)[C@H]2c3cc(C(=O)N(C)C)n(Cc4ccccn4)c3C[C@H]2CN1C(=O)c1ccccc1 , state whether its composite z-score is at least 0.01. yes (1)

Given COc1ccc(C#Cc2ccc3c(c2)[C@]2(C(=O)N3)[C@H](C(=O)NC[C@H](O)c3ccccc3)[C@H]3C(=O)O[C@H](c4ccccc4)[C@H](c4ccccc4)N3[C@@H]2c2ccc(O)cc2)cc1 , state whether its composite z-score is at least 0.01. yes (1)

Given C[N+](C)(C)CCCC[C@@H]1NC(=O)[C@H]2C[C@@H](C(=O)NCCCCCCNC(=O)CS)[C@@H](c3cccc(OCCO)c3)N2C1=O , state whether its composite z-score is at least 0.01. yes (1)

Given O=C(N1CCCCC1)[C@]1(Cc2ccccc2)N=C(c2ccc(OCCCO)cc2)O[C@@H]1c1ccccc1 , state whether its composite z-score is at least 0.01. yes (1)

---

Target: NADPH oxidase 4 (Homo sapiens)
Assay: NOX4-dependent H2O2 signal modulators, primary screen, NOX inhibitor project, cell-based, HEK293-NOX4, tetracycline-induced, Amplex Red fluorescence (AID 1160)
Conditions: 45 min, higher = more signal, called active from +8 up or from −8 down
// rule not met strictly below -1 in z-score; rule met otherwise

Please review the entries below; each comes with its answer.
{"columns": ["Compound", "Discrete Label"],
 "data": [
  ["C=CC[C@]1(C(=O)NCc2ccccc2)N=C(c2ccc(OCCCO)cc2)O[C@H]1c1ccccc1N=[N+]=[N-]", "rule met"],
  ["COc1cc2c(cc1OC)CN(C(=O)[C@@H]1[C@H]3C(=O)O[C@H](c4ccccc4)[C@H](c4ccccc4)N3[C@H](c3ccc(O)cc3)[C@@]13C(=O)Nc1ccccc13)CC2", "rule met"],
  ["CC(CO)N1C(=O)[C@@H]2C3C(=O)OCCC/C=C\\[C@H]3OC23C=CCN(C(C)(C)C)C(=O)[C@@H]13 (stereo not given in full)", "rule met"],
  ["CCCC[C@@H]1C[C@H]1[C@@H](NC(=O)c1ccco1)c1ccccc1C(F)(F)F", "rule not met"],
  ["O=C1c2ccccc2[C@](Cc2ccccc2I)(C(=O)NCC(F)(F)F)[C@H](c2ccc(CO)cc2)N1Cc1ccccc1Cl", "rule met"],
  ["NC(=O)NCC#Cc1ccc2c(c1)[C@]1(C(=O)N2)[C@H](c2ccc(O)cc2)N2[C@H](c3ccccc3)[C@H](c3ccccc3)OC(=O)[C@H]2[C@@H]1C(=O)O", "rule met"],
  ["CC(C)c1ccc(NN2C(C(O)c3ccc(B(O)O)cc3)C=CC3C(=O)N(c4ccccc4)C(=O)C32)cc1 (stereo not given)", "rule not met"],
  ["CCCCCCc1nc(-c2cc(C)c(OC)c(C)c2)cc2c1[Si](C(C)C)(C(C)C)OC2", "rule not met"],
  ["C[N+](C)(C)CCCCNC(=O)[C@@H]1C[C@@H]2C(=O)N[C@@H](Cc3ccccc3)C(=O)N2[C@@H]1c1cccc(OCCO)c1", "rule met"],
  ["O=C(c1ccccc1)N1C(=O)[C@@]2(Cc3ccccc31)N=C(c1ccc(OCCCO)cc1)O[C@H]2c1ccccc1", "rule met"]
]}

Given C[N+](C)(C)CCCCNC(=O)[C@H]1C[C@H]2C(=O)N3CCC[C@H]3C(=O)N2[C@H]1c1cccc(OCCO)c1 , state whether its z-score is at least -1. rule met

Given COC(=O)[C@@]1(Cc2ccc(OC)cc2)[C@H]2c3cc(C(=O)N(C)C)n(CCc4ccccn4)c3C[C@H]2CN1C(=O)c1ccccc1 , state whether its z-score is at least -1. rule met

Given CC(C)C(=C=CC[C@@H](O)c1ccc(OCCO)cc1)C[C@@H](O)c1ccccn1 , state whether its z-score is at least -1. rule met

Given COc1cc2c(cc1O)C(c1cccs1)N(C)CC2 (stereo not given) , state whether its z-score is at least -1. rule not met
